systemUnderTest: PAR4 (Homo sapiens)
Sequence (Q96RI0 18-385): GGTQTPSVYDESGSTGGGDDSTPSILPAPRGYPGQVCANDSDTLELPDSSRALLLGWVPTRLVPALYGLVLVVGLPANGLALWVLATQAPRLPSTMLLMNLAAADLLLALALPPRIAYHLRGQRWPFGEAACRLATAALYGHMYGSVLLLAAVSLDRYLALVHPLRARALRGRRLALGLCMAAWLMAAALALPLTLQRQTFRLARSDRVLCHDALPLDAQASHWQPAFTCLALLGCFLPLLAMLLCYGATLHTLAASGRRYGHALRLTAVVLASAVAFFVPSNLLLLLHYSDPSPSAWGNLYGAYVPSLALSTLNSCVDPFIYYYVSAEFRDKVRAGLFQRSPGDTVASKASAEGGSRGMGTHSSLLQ
experimentNotes: PAC-1 binding assay
Record form. Attribute: pIC50. Fill in for each entry.
Numbers only, as −log10 of the molar value.

- CSc1ncc(-c2c(CO)n(Cc3ccc(F)cc3F)c3ccc(OC(F)(F)F)cc23)cn1 [10c]: 5.83

Here's the next entry for you.
Query :: # lookup: pIC50 of COc1ccc(-c2c(CO)n(Cc3ccccc3Cl)c3cc(OC(F)(F)F)ccc23)cn1 [11d]
Result :: 6.03
